Tested on: drug-resistant Klebsiella pneumonia (ATCC700603)
Assay: Minimum Inhibitory Concentration, micro-dilution broth
Type: cell-based
Settings: Drug resistant bacteria
This listing pairs compounds with measured Minimum Inhibitory Concentration K. pneumonia.
Measured Metric: Minimum Inhibitory Concentration K. pneumonia (µg/mL)

1) CCCCCCCCCCN(Cc1cccc2ccccc12)C(=O)[C@@H](N)CCCCN.O=C(O)C(F)(F)F :: 5.8
2) CCCCCCCCCCN(Cc1ccccc1)C(=O)[C@@H](N)CCCCN.O=C(O)C(F)(F)F :: 31

###

System: vancomycin resistant Enterococcus faecium (ATCC 51559)
Assay: Minimum Inhibitory Concentration, micro-dilution broth
Format: cell-based
Settings: Drug resistant bacteria
// map Minimum Inhibitory Concentration VRE onto a label; ranges low end (below 3 µg/mL), middle (3 µg/mL to below 6 µg/mL), high end (6 µg/mL or more)

1) CCCCCCN(Cc1cccc2ccccc12)C(=O)[C@@H](N)CCCCN.O=C(O)C(F)(F)F :: high end
2) CCCCCCCCCCN(Cc1ccccc1)C(=O)[C@@H](N)CCCCN.O=C(O)C(F)(F)F :: middle
3) CCCCCCCCN(Cc1ccccc1)C(=O)C(N)CCCCN.O=C(O)C(F)(F)F (centres unmarked) :: high end
4) CCCCCCCCN(Cc1cccc2ccccc12)C(=O)C(N)CCCCN.O=C(O)C(F)(F)F (centres unmarked) :: high end
5) CCN(Cc1c2ccccc2c(Cl)c2ccccc12)C(=O)C(N)CCCCN.O=C(O)C(F)(F)F (centres unmarked) :: high end
6) CCCCCCCCCCN(Cc1cccc2ccccc12)C(=O)[C@@H](N)CCCCN.O=C(O)C(F)(F)F :: low end
7) CCCCN(Cc1cccc2ccccc12)C(=O)C(N)CCCCN.O=C(O)C(F)(F)F (centres unmarked) :: high end
8) CCCCCCCCCCCCN(Cc1ccccc1)C(=O)C(N)CCCCN.O=C(O)C(F)(F)F (centres unmarked) :: middle
9) CCCCCCCCCCCCCCN(Cc1ccccc1)C(=O)C(N)CCCCN.O=C(O)C(F)(F)F (centres unmarked) :: low end
10) CCCCCCN(Cc1c2ccccc2c(Cl)c2ccccc12)C(=O)C(N)CCCCN.O=C(O)C(F)(F)F (centres unmarked) :: middle
11) CCCCN(Cc1c2ccccc2c(Cl)c2ccccc12)C(=O)C(N)CCCCN.O=C(O)C(F)(F)F (centres unmarked) :: middle
12) CCCCCCCCCCN(Cc1c2ccccc2c(Cl)c2ccccc12)C(=O)[C@@H](N)CCCCN.O=C(O)C(F)(F)F :: middle
13) CCCCCCCCCCCCN(Cc1cccc2ccccc12)C(=O)[C@@H](N)CCCCN.O=C(O)C(F)(F)F :: middle

###

Tested on: human RBCs
Assay: Haemolytic activity (HC50)
Format: cell-based
Settings: concentration at which 50% of the blood cells are lysed; human RBCs
This listing pairs compounds with measured HC50.
Measured Metric: HC50

1. CCCCCCN(Cc1c2ccccc2c(Cl)c2ccccc12)C(=O)C(N)CCCCN.O=C(O)C(F)(F)F (stereo not shown) :: 82 µg/mL
2. CCCCCCCCN(Cc1cccc2ccccc12)C(=O)C(N)CCCCN.O=C(O)C(F)(F)F (stereo not shown) :: 60 µg/mL
3. CCCCCCCCCCCCN(Cc1cccc2ccccc12)C(=O)[C@@H](N)CCCCN.O=C(O)C(F)(F)F :: 56 µg/mL
4. CCCCCCCCCCCCN(Cc1ccccc1)C(=O)C(N)CCCCN.O=C(O)C(F)(F)F (stereo not shown) :: 45 µg/mL

###

System: Enterococcus faecium (ATCC 19634)
Assay: Minimum Inhibitory Concentration, micro-dilution broth
Format: cell-based
Measured Metric: MIC value against E. faecium

1) CCCCCCCCCCCCCCN(Cc1ccccc1)C(=O)C(N)CCCCN.O=C(O)C(F)(F)F (stereo not shown) [BCK-14] :: ~2 µg/mL
2) CCCCCCN(Cc1c2ccccc2c(Cl)c2ccccc12)C(=O)C(N)CCCCN.O=C(O)C(F)(F)F (stereo not shown) [ACK-6] :: ~3.3 µg/mL

###

System: drug-resistant Klebsiella pneumonia (ATCC700603)
Assay: Minimum Inhibitory Concentration, micro-dilution broth
Assay type: cell-based
Settings: Drug resistant bacteria
Measured Metric: Minimum Inhibitory Concentration K. pneumonia (µg/mL)

1) CCCCCCCCCCCCCCN(Cc1ccccc1)C(=O)C(N)CCCCN.O=C(O)C(F)(F)F (stereo not shown) :: 4
2) CCCCCCN(Cc1c2ccccc2c(Cl)c2ccccc12)C(=O)C(N)CCCCN.O=C(O)C(F)(F)F (stereo not shown) :: 16
3) CCCCCCCCCCCCN(Cc1ccccc1)C(=O)C(N)CCCCN.O=C(O)C(F)(F)F (stereo not shown) :: 2.8
4) CCCCCCN(Cc1cccc2ccccc12)C(=O)[C@@H](N)CCCCN.O=C(O)C(F)(F)F :: 100

###

Test system: human RBCs
Assay: Haemolytic activity (HC50)
Type: cell-based
Conditions: concentration at which 50% of the blood cells are lysed; human RBCs
Measured Metric: HC50 (µg/mL)

1) CCCCCCN(Cc1cccc2ccccc12)C(=O)[C@@H](N)CCCCN.O=C(O)C(F)(F)F :: 508
2) CCCCCCCCN(Cc1ccccc1)C(=O)C(N)CCCCN.O=C(O)C(F)(F)F (stereo not shown) :: 325
3) CCCCN(Cc1c2ccccc2c(Cl)c2ccccc12)C(=O)C(N)CCCCN.O=C(O)C(F)(F)F (stereo not shown) :: 91
4) CCCCCCCCCCN(Cc1ccccc1)C(=O)[C@@H](N)CCCCN.O=C(O)C(F)(F)F :: 95
5) CCN(Cc1c2ccccc2c(Cl)c2ccccc12)C(=O)C(N)CCCCN.O=C(O)C(F)(F)F (stereo not shown) :: 118
6) CCCCCCCCCCN(Cc1cccc2ccccc12)C(=O)[C@@H](N)CCCCN.O=C(O)C(F)(F)F :: 54
7) CCCCCCCCN(Cc1c2ccccc2c(Cl)c2ccccc12)C(=O)[C@@H](N)CCCCN.O=C(O)C(F)(F)F :: 64
8) CCCCCCCCCCN(Cc1c2ccccc2c(Cl)c2ccccc12)C(=O)[C@@H](N)CCCCN.O=C(O)C(F)(F)F :: 71
9) CCCCCCCCCCCCCCN(Cc1ccccc1)C(=O)C(N)CCCCN.O=C(O)C(F)(F)F (stereo not shown) :: 50

###

Test system: Enterococcus faecium (ATCC 19634)
Assay: Minimum Inhibitory Concentration, micro-dilution broth
Type: cell-based
This listing pairs compounds with measured MIC value against E. faecium.
Measured Metric: MIC value against E. faecium

1. CCCCCCCCCCCCN(Cc1ccccc1)C(=O)C(N)CCCCN.O=C(O)C(F)(F)F (stereo not drawn) [BCK-12] :: ~2.6 µg/mL
2. CCCCCCCCCCN(Cc1cccc2ccccc12)C(=O)[C@@H](N)CCCCN.O=C(O)C(F)(F)F [NCK-10] :: ~3.5 µg/mL
3. CCCCCCCCN(Cc1c2ccccc2c(Cl)c2ccccc12)C(=O)[C@@H](N)CCCCN.O=C(O)C(F)(F)F [ACK-8] :: ~2.5 µg/mL
4. CCCCCCCCCCCCN(Cc1cccc2ccccc12)C(=O)[C@@H](N)CCCCN.O=C(O)C(F)(F)F [NCK-12] :: ~1.6 µg/mL
5. CCCCCCCCCCN(Cc1c2ccccc2c(Cl)c2ccccc12)C(=O)[C@@H](N)CCCCN.O=C(O)C(F)(F)F [ACK-10] :: ~4.9 µg/mL
